- assayDetails: in vitro
- measurementConditions: human, hela cells, % viability
In this section, each of the molecules is paired with its reported viability at 28.5 h, 10 µM.
Please give a number only; it is taken to be in %.

A selection of reference data follows.
| molecule | viability at 28.5 h, 10 µM, % |
| --- | --- |
| Cc1ccc(C(=O)Nc2cccc(-c3cn4cccnc4n3)c2)cc1 [CBK287503] | 93.8 |
| COc1cccc(-c2cc(C(=O)Nc3nnn[nH]3)c3ccccc3n2)c1 [CBK262640] | 98.6 |
| CN(C)C(=O)Cn1nc(-c2cccc(-n3cccc3)c2)oc1=O [CBK283759] | 103 |
| CCN(CC)C(=O)CNS(=O)(=O)Cc1ccccc1[N+](=O)[O-] [CBK034504] | 94.3 |
| CCCNC(=O)Nc1ccc(Cl)c(C(=O)O)c1 [CBK287009] | 85.6 |
| CC1CCN(Cc2ccc(-c3cn(CC(=O)NCc4ccc(Br)cc4F)nn3)cc2)CC1 [CBK165756C] | 91.1 |
| Cn1c2c(c(=O)n(C)c1=O)[C@@H]1C(C[C@](O)(CO)[C@H]1O)C1(CCC1)N2 (stereo partly shown) [CBK303264] | 118 |
| COc1cc(CNc2cncc(-c3ccc4c(c3)OCO4)n2)cc(OC)c1OC [CBK065922] | 99.5 |

# lookup: viability at 28.5 h, 10 µM of CC[C@@H]1COCCN1C(=O)c1sc2ccccc2c1Cl [CBK103641]
90.3

# lookup: viability at 28.5 h, 10 µM of NC(=O)c1cc(Cc2ccccc2)sc1NC(=O)c1cccnc1 [CBK268168]
96.2

# lookup: viability at 28.5 h, 10 µM of O=C(O)/C=C/C(=O)NCCc1c[nH]c2ccccc12 [CBK287222]
93

# lookup: viability at 28.5 h, 10 µM of O=C(Nc1ccn(C23CC4CC(CC(C4)C2)C3)n1)c1ccco1 [CBK288023]
106

# lookup: viability at 28.5 h, 10 µM of COc1ccc(OCC(=O)N/N=C\c2c(OC)ccc3ccccc23)c(Br)c1 [CBK261235]
86.3

# lookup: viability at 28.5 h, 10 µM of COc1cccc(NC(=O)c2cc3ccccc3o/c2=N\O)c1 [CBK288387]
86

# lookup: viability at 28.5 h, 10 µM of Cc1cc(C)n(CCCn2cncc2-c2ccc3c(c2)CC(C)N3C)n1 (stereo not shown) [CBK281773]
62

# lookup: viability at 28.5 h, 10 µM of COc1cccc2ncn(CCCc3nc(C)c(C)s3)c(=O)c12 [CBK307208]
95.2
